# assay: NCI Yeast Anticancer Drug Screen. Data for the sgs1 strain (AID 173);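 also: 0% = growth of vehicle-only control cultures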
# experimental context: S. cerevisiae sgs1 mutant, at 3.7 µM, active compounds read high
Compounds without any hit were thinned out: in the full panel of roughly 79,000, 15% have a hit. Residues, ends and D or L forms follow the SMILES beside them. *: point of attachment. Fmoc = O=C(OCC1c2ccccc2-c2ccccc21)*; Boc = CC(C)(C)OC(=O)*

{"columns": ["molecule", "measure unit", "growth inhibition"],
 "data": [
  ["CC(=O)CC(c1ccccc1)c1c(O)c2ccccc2oc1=O (stereo not given)", "%", 14],
  ["CC1=CN2C(c3ccccc3)=NON(c3ccc(C)cn3)C2C=C1 (stereo not given)", "%", -16],
  ["CC(=O)O/N=C1C=C/C(=C(/C#N)c2ccccc2)C=C/1C", "%", 54],
  ["CCN(CC)C(=S)SC(=S)N(CC)CC", "%", -18],
  ["Cc1cccc2c1C1c3c(C)cccc3C(CC(=O)O)CC1CC2 (stereo not given)", "%", 75],
  ["O=C(C(Cl)=C(N1CCCCC1)N1CCCCC1)C(Cl)Cl", "%", -3],
  ["CC(C)[Si]1(C(C)C)OCC2OC(n3cnc4c(N)ncnc43)C(N)C2O[Si](C(C)C)(C(C)C)O1 (stereo not given)", "%", 5],
  ["O=S(=O)(NC1CCCC(c2ccccc2)C1)c1ccccc1 (stereo not given)", "%", 4],
  ["COc1ccc2c(c1)CCCC(Br)C2=O (stereo not given)", "%", 43],
  ["CC(C)OP(=O)(OC(C)C)C(=NCCO)NNc1ccc([N+](=O)[O-])cc1", "%", 39],
  ["c1ccc2c(c1)ccn2CCc1c[nH]c2ccccc12", "%", -38],
  ["CC1(C)CC(=O)C(C(=O)Nc2cccs2)=C(O)C1", "%", 23],
  ["CC1=CC(=O)C=CC1=Nc1cc(Cl)c(O)c(Cl)c1", "%", -42],
  ["O=[N+]([O-])c1ccc(C(c2c[nH]c3ccccc23)c2c[nH]c3ccccc23)cc1", "%", 98],
  ["CC1=NN(C(=O)c2ccccc2O)C(=O)/C1=C/c1ccco1", "%", 44],
  ["CCN(CC)C(=S)N/N=C(\\C)c1ccccc1O", "%", 5],
  ["COC(=O)c1ccccc1N=NNc1cccc(SC)c1", "%", -13],
  ["OC(CC(O)(C(F)(F)F)C(F)(F)F)c1ccc(C(O)CC(O)(C(F)(F)F)C(F)(F)F)cc1 (stereo not given)", "%", 26],
  ["CCCCS/C(=C(/C#N)C(N)=O)c1cc2c([nH]1)CCCC2", "%", 17],
  ["CC(=O)/C=C/c1cccc([N+](=O)[O-])c1", "%", 7],
  ["CCN(CC)CCNc1ccc2nc(C)n3c4ccc(OC)cc4c(=O)c1c23", "%", 27],
  ["CC(C)(C)OC(=O)NCCCCC(NC(=O)C(Cc1c[nH]c2ccccc12)NC(=O)OCC1c2ccccc2-c2ccccc21)C(=O)O (stereo not given) (Fmoc-Trp-Lys(Boc)-OH; configuration not given here)", "%", 0],
  ["COc1cccc(/C=C2\\S/C(=N/Nc3nc(-c4ccc([N+](=O)[O-])cc4)cs3)NC2=O)c1O", "%", 19],
  ["COc1ccc(C(OCC2OC(n3cnc4c(=O)n(Cc5ccccc5[N+](=O)[O-])nnc43)C(O)C2O)(c2ccccc2)c2ccc(OC)cc2)cc1 (stereo not given)", "%", -20],
  ["CC(=O)O[C@H]1CC[C@@]2(C)C(=CC[C@@H]3C2CC[C@]2(C)C(=O)NC(=O)CC32)C1 (stereo not given in full)", "%", 40],
  ["O=[N+]([O-])c1cc[n+]([O-])c(Cl)c1", "%", 10],
  ["CCC[CH2][Ge]([CH2]CCC)([CH2]CCC)[O]C(=O)C(O)c1ccccc1 (stereo not given)", "%", -1],
  ["CC(=O)Oc1ccc2c(c1)Cc1cc(N3C(=O)C=CC3=O)ccc1-2", "%", 33],
  ["CC(=O)/C=C/c1cc([N+](=O)[O-])ccc1O", "%", -24],
  ["CC(C)S(=O)(=O)/C=C\\S(=O)(=O)C(C)C", "%", -8],
  ["CC1C(c2ccccc2)SC(=N)N1C (stereo not given)", "%", 0],
  ["COc1ccccc1NC(=O)c1ccc(Cl)cc1", "%", 1],
  ["Cc1cc(Cl)ccc1NC(=O)/C(Cl)=C(/Cl)C(=O)O", "%", 2],
  ["C=C(C(=O)OC)N1C(=O)CC(C)C1=O (stereo not given)", "%", 12],
  ["CC(C)OP(=O)(OC(C)C)/C(Cl)=N/Nc1ccc([N+](=O)[O-])cc1", "%", 23],
  ["CC(C)(CN1CCCCC1)C(=O)CC(SCCS(=O)(=O)O)c1ccccc1 (stereo not given)", "%", 6],
  ["CCc1c(Cl)c(C)c(Cl)c(O)c1Cl", "%", -13],
  ["CC1(C)C(O)OC(O)C1(C)C (stereo not given)", "%", 5],
  ["COc1cc(C(=O)C=O)cc(OC)c1OC", "%", 4],
  ["CCCCCCCCCC(=O)N(CCC)CCC", "%", -9],
  ["O=[N+]([O-])/C=C/c1cc2ccc3ccccc3c2[nH]1", "%", 72],
  ["O=[N+]([O-])c1ccc2[nH]c3c(-c4ccccc4)nccc3c2c1", "%", 0],
  ["CN(C)CC(CN(C)C)C(=O)/C=C/c1ccc(Cl)cc1Cl", "%", -2],
  ["COc1cc2c(cc1O)[C@H](C)C(c1ccccc1OC)O2 (stereo not given in full)", "%", -17],
  ["CCOP(=O)(OCC)/C(C#N)=C\\c1cccc2ccccc12", "%", 23]
]}
